- System: rabbit skeletal myofibrils (approximately 90% fast fibers)
- TEST NAME: Activation of fast skeletal myofibrils (PUMA coupled-enzyme ATPase assay, AC1.4)
- Assay type: biochemical
- CONDITION DETAILS: Table 2; concentration at which the compound increased enzymatic activity by 40%; calcium at pCa25
OUTCOME MEASURE: Mean AC1.4

Would you please look over these solved cases?
| STRUCTURE SMILES STRING | Mean AC1.4 |
| --- | --- |
| CC(C)(CNc1nsc(-c2cccc(C(N)=O)c2)n1)c1ccc(F)cc1 | B (B=1-10 uM) |
| CC(C)(CNc1nc(CN2CC[C@H](O)C2)ns1)c1ccc(F)cc1 | D (D=>20 uM) |
| COc1cccc(Cc2nsc(NCCc3cc(F)cc(F)c3)n2)c1 | D (D=>20 uM) |
| C[C@H](CNc1nc(-c2cn[nH]c2)ns1)c1ccc(F)cc1 | B (B=1-10 uM) |
| Oc1ccc(CCNc2nc(Cc3ccc(F)cc3)ns2)cc1 | D (D=>20 uM) |

Continue with the compound presented below.
Requested read-out Mean AC1.4, target or system rabbit skeletal myofibrils (approximately 90% fast fibers), entry Cc1ccc(Cc2nsc(NCCc3ccccc3Cl)n2)cc1
D (D=>20 uM)

Hey, just so you know, these numbers are from patent US9278962B2.
